assay.comment: Human HepG2 cell viability assay in 384 well format
Assay type: toxicity, cell-based
Design: dose 125 nL, time 70.5 hour; concentration not given beside the values
condition.parameters: HepG2 cells, read-out: Inhibition
Entries and their measured cytotoxicity at 70.5 h follow.
attribute.measured: cytotoxicity at 70.5 h (%)

                                    compound      attribute_measured  unit_spec  observed_result
 0  COCc1cnc2n1CCN(Cc1cccnc1)C2C (stereo unspecified)  cytotoxicity at 70.5 h          %            -17.6
 1  C=C(C)CN1CCCC1c1nc(Cc2ccc(F)cc2)no1 (stereo unspecified)  cytotoxicity at 70.5 h          %             12.4
 2       COc1cc(CNCCNC(=O)c2ccc(O)cc2)ccc1SC  cytotoxicity at 70.5 h          %             55.5
 3  Cc1noc(C(C)N2CCN(Cc3cccc(C#N)c3)CC2)n1 (stereo unspecified)  cytotoxicity at 70.5 h          %            -5.03
 4  O=S(=O)(C1CC1)N1CC[C@H](OCC2CC2)[C@@H]1Cc1cccnc1  cytotoxicity at 70.5 h          %            -4.98
 5  Cn1c(CN2CCCC(c3noc(C4CC4)n3)C2)cc(=O)n(C)c1=O (stereo unspecified)  cytotoxicity at 70.5 h          %            -11.3
 6  O=S(=O)(c1ccc(F)cc1F)N1CCCCC1c1nnc2n1CCCC2 (stereo unspecified)  cytotoxicity at 70.5 h          %            -12.7
 7  CN(CCN1CCCC1=O)CC(c1cccs1)N1CCOCC1 (stereo unspecified)  cytotoxicity at 70.5 h          %            -11.7
 8  Cc1cc2cc(CNC3CCN(CC(=O)N(C)C)CC3)oc2cc1C  cytotoxicity at 70.5 h          %             -3.5
 9  CN1CC2(CCCN(Cc3ccc(Oc4ccccc4)cc3)C2)OC1=O (stereo unspecified)  cytotoxicity at 70.5 h          %             16.8
10   NC(=O)[C@H]1CCCN(c2nccc(-c3ccncc3)n2)C1  cytotoxicity at 70.5 h          %           -0.804

====

assay.comment: Human HepG2 cell viability assay in 384 well format
Format: toxicity, cell-based
Design: dose 125 nL, time 70.5 hour; concentration not given beside the values
condition.parameters: HepG2 cells, read-out: Inhibition
Some compounds, each annotated with its measured cytotoxicity at 70.5 h.
attribute.measured: cytotoxicity at 70.5 h (%)

>>> print(df.to_string())
                                    compound      attribute_measured  unit_spec  observed_result
 0  CNC(=O)c1cccc(NC(=O)CN2CCN(S(C)(=O)=O)CC2)c1  cytotoxicity at 70.5 h          %            -11.3
 1  NC(=O)C1CN(c2ccc(Br)cn2)CCO1 (stereo not drawn)  cytotoxicity at 70.5 h          %            -26.8
 2  Fc1cccc(O[C@@H]2C[C@H]3CN(Cc4ccccn4)CCN3C2)c1  cytotoxicity at 70.5 h          %             27.5
 3  COc1cccc(-c2n[nH]cc2C(=O)NC(C)c2n[nH]c(C)n2)c1 (stereo not drawn)  cytotoxicity at 70.5 h          %             13.9
 4           Cc1cnn(CCNc2nc(C)cc(N(C)C)n2)c1  cytotoxicity at 70.5 h          %             11.4
 5  Cn1c(CN2CCOC(c3nc(C(C)(C)C)n[nH]3)C2)nnc1C1CC1 (stereo not drawn)  cytotoxicity at 70.5 h          %             26.5
 6  c1coc(-c2noc(CN3CCC(c4ccn[nH]4)CC3)n2)c1  cytotoxicity at 70.5 h          %            -8.33
 7  CNC(=O)[C@H]1C[C@@H]2CCN(Cc3ccncc3)C[C@H]2O1  cytotoxicity at 70.5 h          %            -6.07
 8  Cc1noc(C(C)N2CCN(CCC(=O)N3CCCCC3)CC2)n1 (stereo not drawn)  cytotoxicity at 70.5 h          %            -8.82
 9  COCCC1(CO)CCCN(Cc2ccc(F)c(C)c2)C1 (stereo not drawn)  cytotoxicity at 70.5 h          %            -6.14
10  Cc1cnn(CC(C)NCc2c(C)nn(Cc3ccccc3)c2C)c1 (stereo not drawn)  cytotoxicity at 70.5 h          %            -4.31
11  Cc1cnn(CC2CCCN2Cc2cc(C)on2)c1 (stereo not drawn)  cytotoxicity at 70.5 h          %            -4.61
12  c1cc(-c2noc(CN3CCn4c(nnc4C4CC4)C3)n2)co1  cytotoxicity at 70.5 h          %           -0.323
13  Cc1cc(C)nc(C2CCCN2C(=O)c2cnccn2)n1 (stereo not drawn)  cytotoxicity at 70.5 h          %            -2.97
14  Cc1nnc(CN2C[C@H](NC(=O)C3CCOCC3)[C@@H](C(C)C)C2)s1  cytotoxicity at 70.5 h          %            -6.56
15             O=C1NC[C@H]2CN(Cc3nccs3)CCN12  cytotoxicity at 70.5 h          %            -8.47
16  CC(C)NC(=O)CC(C)NC(=O)N(C)Cc1cc(Cl)cn1C (stereo not drawn)  cytotoxicity at 70.5 h          %            -8.56
17  Cn1ccnc1CN1CCN2C[C@H](Oc3cncnc3)C[C@H]2C1  cytotoxicity at 70.5 h          %            0.558
18          CNS(=O)(=O)Cc1cccc(CNCc2ccsc2)c1  cytotoxicity at 70.5 h          %            -8.06
19  CS(=O)(=O)c1cccc(C(=O)N2CCCC(n3cccn3)C2)c1 (stereo not drawn)  cytotoxicity at 70.5 h          %             2.98
20  CNC(=O)N1CC[C@@H]2CN(Cc3cccnc3)S(=O)(=O)[C@@H]2CC1  cytotoxicity at 70.5 h          %            -17.6
21  COCCN(C)CCN1CC2(CCN(C3CCSC3)CC2)OC1=O (stereo not drawn)  cytotoxicity at 70.5 h          %            -4.49
22  Cc1ccc(CN2CCC3(CCC(=O)N3CC(=O)N(C)C)CC2)s1  cytotoxicity at 70.5 h          %            -13.1
